system: Stomach; test: Biodistribution in ddY mouse stomach at 1 uCi/100 uL, iv after 60 mins by gamma counting; format: ADME, organism-based; details: in vivo, 1 h
parameter: Drug uptake (% ID/organ)

I. CN(C)c1ccc(/C=C/C(=O)/C=C/c2ccc([125I])cc2)cc1
II. Nc1ccc(/C=C/C(=O)/C=C/c2ccc([125I])cc2)cc1
III. CNc1ccc(/C=C/C(=O)/C=C/c2ccc([125I])cc2)cc1
Can you order these entries from above by Drug uptake? Start with the largest number and work down. Answer by listing the labels in the requested order. III, II, I

* * *

tested on: Stomach; assay: Biodistribution in ddY mouse stomach at 10 uCi/100 uL, iv after 2 mins by gamma counting; format: ADME, organism-based; conditions: in vivo
parameter: Drug uptake (% ID/organ)

A. CNc1ccc(/C=C/C(=O)/C=C/c2ccc(OCCOCCOCC[18F])cc2)cc1
B. CN(C)c1ccc(/C=C/C(=O)/C=C/c2ccc(OCCOCCOCC[18F])cc2)cc1
Name the one with the greater Drug uptake value, either A or B as given. Answer with the label corresponding to your selection. B

* * *

tested on: Stomach; assay: Biodistribution in ddY mouse stomach at 1 uCi/100 uL, iv after 2 mins by gamma counting; assay type: ADME, organism-based; conditions: in vivo
parameter: Drug uptake (% ID/organ)

Nc1ccc(/C=C/C(=O)/C=C/c2ccc([125I])cc2)cc1: 1.37

1. CN(C)c1ccc(/C=C/C(=O)/C=C/c2ccc([125I])cc2)cc1
2. CNc1ccc(/C=C/C(=O)/C=C/c2ccc([125I])cc2)cc1
Name the one with the greater Drug uptake value, either 1 or 2 as given. Answer with the label corresponding to your selection. 2

* * *

assay: Displacement of [125I]IMPY from amyloid beta (1 to 42) aggregate after 2 hrs by gamma counting
pKi: −log10 of the molar value.
parameter: pKi

COc1cc(OC)c(/C=C/C(=O)/C=C/c2ccc(N(C)C)cc2)c(OC)c1: 7.41

A. CN(C)c1ccc(/C=C/C(=O)/C=C/c2ccc(OCCOCCOCCF)cc2)cc1
B. CN(C)c1ccc(/C=C/C(=O)/C=C/c2ccccc2O)cc1
Name the one with the greater pKi value, either A or B as given. Answer with the label corresponding to your selection. A

a. CN(C)c1ccc(/C=C/C(=O)/C=C/c2cccc(N(C)C)c2)cc1
b. CN(C)c1ccc(/C=C/C(=O)/C=C/c2ccc(Br)nc2)cc1
c. COc1cc(/C=C/C(=O)/C=C/c2ccc(N(C)C)cc2)ccc1OCc1ccccc1
d. O=C(/C=C/c1ccccc1)/C=C/c1ccccc1
// ascending sort on recorded pKi Answer by listing the labels in the requested order. d, a, c, b

* * *

test: Displacement of [125I]IMPY from amyloid beta (1 to 42) aggregate after 2 hrs by gamma counting
parameter: Ki (nM)

The cases that follow already have their Ki on record.
CN(C)c1ccc(/C=C2\CCC/C(=C\c3ccc(N(C)C)cc3)C2=O)cc1: 1
CN(C)c1ccc(/C=C/C(=O)/C=C/c2ccc(Cl)cc2)cc1: 1.1
CN(C)c1ccc(/C=C/C(=O)/C=C/c2ccc(OCCOCCF)cc2)cc1: 4.4
CN(C)c1ccc(/C=C/C(=O)/C=C/c2ccc(O)cc2)cc1: 6.8
CN(C)c1ccc(/C=C/C(=O)/C=C/c2ccc(I)cc2)cc1: 0.9

a. Nc1ccc(/C=C/C(=O)/C=C/c2ccc(I)cc2)cc1
b. COc1ccc(/C=C/C(=O)/C=C/c2ccc(N(C)C)cc2)c(OC)c1
c. O=C1/C(=C/c2ccccc2)CCC/C1=C\c1ccccc1
d. CN(C)c1ccc(/C=C/C(=O)/C=C/c2ccc3[nH]ccc3c2)cc1
e. CN(C)c1ccc(/C=C/C(=O)/C=C/c2ccccc2)cc1
// ascending sort on recorded Ki Answer by listing the labels in the requested order. e, b, d, a, c
(e: 1.2 nM, b: 2.8 nM, d: 4.2 nM, a: 7 nM, c: 704 nM)

* * *

assay: Displacement of [125I]IMPY from amyloid beta (1 to 42) aggregate after 2 hrs by gamma counting
pKi: −log10 of the molar value.
parameter: pKi

The cases that follow already have their pKi on record.
CNc1ccc(/C=C/C(=O)/C=C/c2ccc(I)cc2)cc1: 8.55
CN(C)c1ccc(/C=C/C(=O)/C=C/c2ccc(Cl)nc2)cc1: 8.66
O=C(/C=C/c1ccc(Cl)cc1)/C=C/c1ccc(Cl)cc1: 8.05
CN(C)c1ccc(/C=C/C(=O)/C=C/c2cc(Br)ccc2O)cc1: 7.79
COc1ccc(/C=C/C(=O)/C=C/c2ccc(N(C)C)cc2)cc1OC: 8.27

1. CNc1ccc(/C=C/C(=O)/C=C/c2ccc(OCCOCCOCCF)cc2)cc1
2. CN(C)c1ccc(/C=C/C(=O)/C=C/c2ccc(I)nc2)cc1
Name the one with the greater pKi value, either 1 or 2 as given. Answer with the label corresponding to your selection. 2

A. CN(C)c1ccc(/C=C/C(=O)/C=C/c2ccccc2N)cc1
B. Cc1ccc(/C=C/C(=O)/C=C/c2ccc(N(C)C)cc2)cc1
Name the one with the greater pKi value, either A or B as given. Answer with the label corresponding to your selection. B
